Origin of values: PubChem BioAssay (NCI)

# System: EKVX NSCLC
# protocol: NCI-60 one-dose screen, 48 h (100 = growth as untreated, 0 = no growth, -100 = all killed)
# run_parameters: 10 µM unless noted
About 83,000 compounds went through this panel and 20% of them were active in at least one assay; those are over-represented in the sample as a whole.
# growth listing for each entry below
Give the quantity in %, number only.

Previously resolved entries follow.
compound	tested_system	numeric_result
O=c1oc2c(cnc3ccccc32)cc1-c1cccc(Cl)c1	EKVX NSCLC	99.1
CCN(CCNc1ccc(C)c2sc3cc(Cl)ccc3c(=O)c12)CC(C)(C)O	EKVX NSCLC	82
O=C1C(Cl)=C(Nc2ccccc2)C(=O)c2ccccc21	EKVX NSCLC	-91.9

Now consider the entry below.
So for `N#Cc1c(-c2ccc(Br)cc2)nc2c(N=Nc3ccc(S(N)(=O)=O)cc3)c(N)nn2c1N` , the logged growth turned out to be 71.1
